- tested_target: Prolyl endopeptidase-like (Mus musculus) (UniProt Q8C167)
- Sequence (Q8C167 whole entry, looked up): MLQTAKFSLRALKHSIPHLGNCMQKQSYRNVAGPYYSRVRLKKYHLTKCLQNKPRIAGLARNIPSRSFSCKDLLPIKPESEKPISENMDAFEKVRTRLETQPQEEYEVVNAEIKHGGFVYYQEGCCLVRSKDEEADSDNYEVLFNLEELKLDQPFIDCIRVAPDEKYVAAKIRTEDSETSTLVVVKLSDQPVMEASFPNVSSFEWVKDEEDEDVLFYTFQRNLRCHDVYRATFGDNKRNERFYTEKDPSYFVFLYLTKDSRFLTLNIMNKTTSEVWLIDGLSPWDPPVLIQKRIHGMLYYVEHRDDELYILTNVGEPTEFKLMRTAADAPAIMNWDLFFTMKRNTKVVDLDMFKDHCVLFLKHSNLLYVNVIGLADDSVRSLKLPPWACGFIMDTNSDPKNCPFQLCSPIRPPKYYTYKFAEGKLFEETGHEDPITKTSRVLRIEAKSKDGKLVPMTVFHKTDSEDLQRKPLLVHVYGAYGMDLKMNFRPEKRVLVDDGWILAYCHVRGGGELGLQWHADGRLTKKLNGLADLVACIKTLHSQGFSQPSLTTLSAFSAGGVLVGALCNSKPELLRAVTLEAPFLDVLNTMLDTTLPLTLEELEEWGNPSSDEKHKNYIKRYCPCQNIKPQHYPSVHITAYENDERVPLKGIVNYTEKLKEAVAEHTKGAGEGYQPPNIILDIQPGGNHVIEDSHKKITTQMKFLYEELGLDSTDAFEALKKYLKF
- test_name: purified PREPL inhibitors, PREPL inhibitor project, biochemical, gel-based competitive ABPP, fluorescence, HTS hits (AID 624481)
- settings: at 20 µM, stronger effect = higher value
readout: inhibition (%)

{"columns": ["compound", "assay_value"],
 "data": [
  ["COc1ccc(C)cc1Nc1n[n+](-c2ccccc2)c(-c2ccc(N(C)C)cc2)s1", -72],
  ["COc1ccc2cc1Oc1ccc(cc1)CC1c3c(cc(OC)c4c3Oc3cc5c(cc3O4)CCNC5C2)CCN1C (stereo not drawn)", -113],
  ["COc1ccc(CCNC(=O)c2cc3c(=O)n4cccc(C)c4nc3n(CCCN3CCOCC3)c2=N)cc1", -87],
  ["Cc1cc(N2CCN(C)CC2)nc2ccc(NC(=O)CCC(=O)N3CCN(c4ccc([N+](=O)[O-])cc4)CC3)cc12", -92],
  ["Cc1cc(C)c2nc(C)cc(NN=Cc3ccc(O)cc3)c2c1", -1],
  ["COc1ccc2cc1Oc1ccc(cc1)C[C@H]1c3cc(c(OC)cc3CCN1C)Oc1c(OC)c(OC)cc3c1[C@H](C2)N(C)CC3", -30],
  ["Cc1noc(C)c1S(=O)(=O)N(C)C[C@H]1Oc2c(NC(=O)Nc3ccc(C(F)(F)F)cc3)cccc2C(=O)N([C@H](C)CO)C[C@@H]1C", 9],
  ["COc1ccc(C(CCNCc2ccc(N(C)C)cc2)c2ccccc2)cc1 (stereo not drawn)", -124]
]}

* * *

- tested_target: Prolyl endopeptidase-like (Mus musculus)
- test_name: purified PREPL inhibitors, PREPL inhibitor project, biochemical, gel-based competitive ABPP, fluorescence, HTS hits (AID 624481)
- settings: at 20 µM, stronger effect = higher value
Measured inhibition values are reported for all entries that follow.

{"columns": ["compound", "tested_target", "inhibition (%)"],
 "data": [
  ["COc1ccc(N2CCN(c3nc4c(c(=O)n(C)c(=O)n4C)n3Cc3ccccc3)CC2)cc1", "Prolyl endopeptidase-like (Mus musculus)", -47],
  ["CN(C)c1ccc(NC(=O)Cn2cc3c(n2)CCCC3)cc1", "Prolyl endopeptidase-like (Mus musculus)", -22],
  ["Cc1c(CN(C)C)c2c(n1Cc1ccccc1)C(=O)c1ccc(Br)cc1-2", "Prolyl endopeptidase-like (Mus musculus)", -33],
  ["CC(=O)n1cc([C@@H]2C=C(C(=O)N3CCN(C)CC3)O[C@H](OCc3ccc(CO)cc3)C2)c2ccccc21", "Prolyl endopeptidase-like (Mus musculus)", -55],
  ["Cc1cc2cc(CNC(=O)c3ccc(Br)o3)ccc2n1C", "Prolyl endopeptidase-like (Mus musculus)", 38],
  ["Cc1cccc(OCC(=O)Nc2ccc(N3CCN(C(=O)c4ccco4)CC3)cc2)c1", "Prolyl endopeptidase-like (Mus musculus)", -15],
  ["NC(=O)[C@H]1CC2(CC(c3cccc(NC(=O)COc4ccc(Cl)cc4)c3)=NO2)CN1C(=O)Cc1ccc([N+](=O)[O-])cc1 (stereo partly drawn)", "Prolyl endopeptidase-like (Mus musculus)", -114],
  ["Nc1nn(-c2ccccc2)c(N)c1N=Nc1ccc2c(c1)OCO2", "Prolyl endopeptidase-like (Mus musculus)", 17],
  ["CCN(CC)c1ccc2cc(C(N)=O)c(=NNC(=O)c3ccncc3)oc2c1", "Prolyl endopeptidase-like (Mus musculus)", -14],
  ["Cc1ccc(C)c(-c2nn(-c3cc(N4CCN(CCO)CC4)ccc3[N+](=O)[O-])c(=O)c3ccccc23)c1", "Prolyl endopeptidase-like (Mus musculus)", 7],
  ["O=C1c2c(O)ccc(O)c2C(=O)c2c(NCCNCCO)ccc(NCCNCCO)c21", "Prolyl endopeptidase-like (Mus musculus)", -46],
  ["O=C(C1=C[C@@H](c2ccc(Br)cc2)C[C@@H](OCCCCO)O1)N1CCN(Cc2ccc3c(c2)OCO3)CC1", "Prolyl endopeptidase-like (Mus musculus)", -47],
  ["C=CC[n+]1c(-c2ccc(Cl)cc2Cl)csc1Nc1ccc(NC(C)=O)cc1", "Prolyl endopeptidase-like (Mus musculus)", -43],
  ["C#CCOCCOCCOCCNc1nc(N2CCN(C(=O)[C@H](Cc3cc4ccccc4[nH]3)n3cc([C@@H](N)C(C)CC)nn3)CC2)nc(N2CCN(C(=O)[C@H](CCCCN)n3cc([C@@H](N)CC(C)C)nn3)CC2)n1 (stereo partly drawn)", "Prolyl endopeptidase-like (Mus musculus)", -29],
  ["CCOc1ccc2[nH]c3c(N4CCc5ccccc5C4)ncnc3c2c1", "Prolyl endopeptidase-like (Mus musculus)", 1],
  ["C#CCOCCOCCOCCNc1nc(N2CCN(C(=O)CCCCCCCCCCNC(=O)Cn3cc(CCCCCN)nn3)CC2)nc(N2CCN(C(=O)CCCCCCCCCCNC(=O)Cn3cc(CCCCCN)nn3)CC2)n1", "Prolyl endopeptidase-like (Mus musculus)", -99],
  ["Cc1cccc(OCC(=O)Nc2ccc(N3CCN(C(=O)c4ccccc4)CC3)cc2)c1C", "Prolyl endopeptidase-like (Mus musculus)", -8],
  ["CN(C)CCCNc1cc(C(C)(C)C)nc2c(-c3ccccc3)cnn12", "Prolyl endopeptidase-like (Mus musculus)", -34]
]}

* * *

- tested_target: Prolyl endopeptidase-like (Mus musculus)
- test_name: purified PREPL inhibitors, PREPL inhibitor project, biochemical, gel-based competitive ABPP, fluorescence, HTS hits (AID 624481)
- settings: at 20 µM, stronger effect = higher value
Active and inactive are the calls of the source. Rule as the data show it: active = inhibition above about 50%; inactive = the rest.

{"columns": ["molecule", "inhibition"],
 "data": [
  ["O=C(C1=C[C@@H](c2ccc(C(F)(F)F)cc2)C[C@@H](OCc2ccc(CO)cc2)O1)N1CCN(Cc2ccccc2)CC1", "-76% (inactive)"],
  ["COc1ccc(N2CCN(c3cc(C)nc4ccc(OC)cc34)CC2)cc1", "-69% (inactive)"],
  ["CN1CCN(CCCN2c3ccccc3Sc3ccc(Cl)cc32)CC1", "-90% (inactive)"],
  ["C[N+](C)(CCCCCC[N+](C)(C)CCCN1C(=O)c2cccc3cccc(c23)C1=O)CCCN1C(=O)c2cccc3cccc(c23)C1=O", "-29% (inactive)"],
  ["COc1ccc(NCc2nc3ccccc3n2CCOc2ccc(C)cc2)cc1", "-75% (inactive)"],
  ["CNC(=S)N1N=C(c2ccc(C)cc2)CC1c1ccc(N(C)C)cc1 (stereo not given)", "-85% (inactive)"],
  ["CC(C)[C@H](CN1CCC[C@H]1CN1C(N)=NC[C@H]1C(C)C)N1C[C@@H](Cc2ccccc2)N(CCCC2CCCC2)C1=N", "92% (active)"],
  ["CCN1C(=O)/C(=C\\N2CCN(c3ccccc3)CC2)SC1=S", "-14% (inactive)"],
  ["O=C1c2ccccc2C(=O)c2c1cccc2N1CCN(C/C=C/c2ccccc2)CC1", "-116% (inactive)"],
  ["CCN1CCN(c2ccc(NC(=O)COc3ccc(Cl)cc3C)cc2)CC1", "-7% (inactive)"]
]}

* * *

- tested_target: Prolyl endopeptidase-like (Mus musculus) (UniProt Q8C167)
- test_name: purified PREPL inhibitors, PREPL inhibitor project, biochemical, gel-based competitive ABPP, fluorescence, HTS hits (AID 624481)
- settings: at 20 µM, stronger effect = higher value
readout: inhibition (%)

{"columns": ["chemical_smiles", "unit", "assay_value"],
 "data": [
  ["Cc1ccc(OCC(=O)Nc2ccc(N3CCN(C(=O)c4ccco4)CC3)cc2)cc1C", "%", 44],
  ["NC(=O)[C@@H]1CCCNc2c(I)cc([N+](=O)[O-])cc2C(=O)N[C@@H](CCCN=C(N)N)C(=O)N[C@@H](CCCN=C(N)N)C(=O)N1", "%", -77],
  ["O=C1N/C(=C/c2ccc(N3CCOCC3)cc2)C(=O)N1Cc1ccc(F)cc1", "%", -30],
  ["COc1ccc2cc1Oc1ccc(cc1)C[C@H]1c3cc(c(OC)cc3CCN1C)Oc1c(O)c(OC)cc3c1[C@H](C2)N(C)CC3", "%", 0],
  ["CC(=O)N1CCN(c2ccc(NCc3ccc(-c4cccc(Cl)c4)o3)cc2)CC1", "%", 39]
]}

* * *

- tested_target: Prolyl endopeptidase-like (Mus musculus) (UniProt Q8C167)
- test_name: purified PREPL inhibitors, PREPL inhibitor project, biochemical, gel-based competitive ABPP, fluorescence, HTS hits (AID 624481)
- settings: at 20 µM, stronger effect = higher value
readout: inhibition (%)

{"columns": ["chemical_smiles", "assay_value"],
 "data": [
  ["CC(=NNc1nc2ccccc2[nH]1)c1cc2ccccc2o1", -17],
  ["CC(=O)N1CCN(c2ccc(NC(=O)COc3ccc(Cl)cc3Cl)cc2)CC1", -20],
  ["Oc1c(CN2CCCC2)cc(COCc2ccccc2)c2cccnc12", -64],
  ["CN1CCN(C(=O)C2=C[C@@H](c3ccc4c(c3)OCO4)C[C@@H](OCc3ccc(CO)cc3)O2)CC1", -46],
  ["Nc1nc(-c2ccccc2)c(N=Nc2ccccc2Cl)s1", -9],
  ["C#CCOCCOCCOCCNc1nc(N2CCN(C(=O)[C@H]([C@@H](C)CC)n3cc([C@@H](N)Cc4ccc(O)cc4)nn3)CC2)nc(N2CCN(C(=O)[C@H](Cc3cc4ccccc4[nH]3)n3cc([C@@H](N)CC(C)C)nn3)CC2)n1", -105],
  ["CN(CC(=O)Nc1ccccc1Cl)C(=O)c1cccc(S(=O)(=O)N2CCN(Cc3ccccc3)CC2)c1", -6]
]}
